Observed pIC50 for MMP3 (Homo sapiens (Human), UniProt P08254), reported per entry below.
Keep in mind that pIC50 stands for -log10 of concentration in molar terms.

smi	reported-value
Cc1cc(COc2ccc(C(=O)NC[C@@H](C(=O)NO)N3CCN(S(C)(=O)=O)CC3)cc2)c2ccccc2n1	5.17

IN: # query: pIC50 of entry CC#CCOc1ccc(C(=O)NC[C@@H](C(=O)NO)N2CCN(S(C)(=O)=O)CC2)cc1
OUT: 5.20

* * *

- target: TACE enzyme (Homo sapiens)
- test-summary: Enzymatic test of TACE inhibition (fluorescent substrate)
- Format: biochemical
- condition-set: enzymatic test, substrate 40 μM
Quick list: pIC50 per entry.
Keep in mind that pIC50 stands for -log10 of concentration in molar terms.

Would you please look over these solved cases?
molecule	target	measured-endpoint	reported-value
CS(=O)(=O)N1CCN([C@@H](CNC(=O)c2ccc(OCc3ccc(F)cc3)cc2)C(=O)NO)CC1 [Example 9]	TACE enzyme (Homo sapiens)	pIC50	7.68
Cc1ccc2ccccc2c1COc1ccc(C(=O)NC[C@@H](C(=O)NO)N2CCN(S(C)(=O)=O)CC2)cc1 [Example 19]	TACE enzyme (Homo sapiens)	pIC50	6.86

Below: the item to evaluate.
IN: Please state recorded pIC50 (tested on TACE enzyme (Homo sapiens)) of CS(=O)(=O)N1CCN([C@@H](CNC(=O)c2ccc(OCC#CCO)cc2)C(=O)NO)CC1 [Example 16]
OUT: 7.46

* * *

- target: ADAM10 (Homo sapiens (Human), UniProt O14672)
- Sequence (O14672 214-748): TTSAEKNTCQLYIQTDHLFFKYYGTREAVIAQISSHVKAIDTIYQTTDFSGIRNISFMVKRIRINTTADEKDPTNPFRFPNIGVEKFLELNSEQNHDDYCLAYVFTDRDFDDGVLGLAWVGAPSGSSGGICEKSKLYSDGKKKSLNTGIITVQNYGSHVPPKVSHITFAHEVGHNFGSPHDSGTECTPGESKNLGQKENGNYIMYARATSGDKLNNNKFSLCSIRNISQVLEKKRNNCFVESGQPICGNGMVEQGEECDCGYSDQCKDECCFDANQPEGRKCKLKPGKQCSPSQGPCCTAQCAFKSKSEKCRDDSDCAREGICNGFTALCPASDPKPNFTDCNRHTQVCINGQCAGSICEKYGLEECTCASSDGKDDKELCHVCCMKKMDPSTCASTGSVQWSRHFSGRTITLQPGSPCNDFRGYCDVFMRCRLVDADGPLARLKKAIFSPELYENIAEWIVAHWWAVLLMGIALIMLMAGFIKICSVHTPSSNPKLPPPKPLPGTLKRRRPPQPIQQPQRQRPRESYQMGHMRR
measured-endpoint: pIC50
Keep in mind that pIC50 stands for -log10 of concentration in molar terms.

IN: Please state recorded pIC50 (tested on ADAM10 (Homo sapiens (Human), UniProt O14672)) of Cc1cc(COc2ccc(C(=O)NC[C@@H](C(=O)NO)N3CCN(S(C)(=O)=O)CC3)cc2)c2ccccc2n1
OUT: 5.24

* * *

- target: TACE enzyme (Homo sapiens, UniProt P78536)
- Sequence (P78536 215-824 limits assumed): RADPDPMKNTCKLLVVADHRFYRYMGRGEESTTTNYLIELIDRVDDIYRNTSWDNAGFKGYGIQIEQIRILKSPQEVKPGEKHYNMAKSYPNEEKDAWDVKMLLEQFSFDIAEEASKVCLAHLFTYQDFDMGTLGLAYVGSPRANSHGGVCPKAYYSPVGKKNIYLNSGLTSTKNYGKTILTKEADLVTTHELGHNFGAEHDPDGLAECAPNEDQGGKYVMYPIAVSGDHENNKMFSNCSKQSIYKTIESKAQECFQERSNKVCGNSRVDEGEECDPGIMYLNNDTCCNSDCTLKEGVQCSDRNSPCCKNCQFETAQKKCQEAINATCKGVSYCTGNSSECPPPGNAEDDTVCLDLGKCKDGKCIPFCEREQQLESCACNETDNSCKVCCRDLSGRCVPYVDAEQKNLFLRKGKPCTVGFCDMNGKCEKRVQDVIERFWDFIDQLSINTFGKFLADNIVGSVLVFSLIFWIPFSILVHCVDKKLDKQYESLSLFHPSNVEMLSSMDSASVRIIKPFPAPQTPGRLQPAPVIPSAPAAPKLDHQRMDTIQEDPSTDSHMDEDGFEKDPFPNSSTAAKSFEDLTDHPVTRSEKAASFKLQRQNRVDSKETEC
- test-summary: Enzymatic test of TACE inhibition (fluorescent substrate)
- Assay type: biochemical
- condition-set: enzymatic test, substrate 40 μM
measured-endpoint: IC50 (nM)
Please reply with the bare figure in nM and do not write the unit itself.

Would you please look over these solved cases?
compound	IC50 / nM
Cc1ccc(COc2ccc(C(=O)NC[C@@H](C(=O)NO)N3CCN(S(C)(=O)=O)CC3)cc2)cc1 [Example 11]	95
CS(=O)(=O)N1CCN([C@@H](CNC(=O)c2ccc(OCc3ccc(C(F)(F)F)cc3)cc2)C(=O)NO)CC1 [Example 10]	117

IN: # query: IC50 of entry Cc1cc(COc2ccc(C(=O)NC[C@@H](C(=O)NO)N3CCN(S(=O)(=O)C(C)C)CC3)cc2)c2ccccc2n1 [Example 23]
OUT: 102

Data provenance: patent US9115102B2
